Would you mind telling me the reported pIC50 of each entry?
Target: Ba/F3 cells with EGFR WT (Homo sapiens, UniProt P00533)
Sequence (P00533 25-1210): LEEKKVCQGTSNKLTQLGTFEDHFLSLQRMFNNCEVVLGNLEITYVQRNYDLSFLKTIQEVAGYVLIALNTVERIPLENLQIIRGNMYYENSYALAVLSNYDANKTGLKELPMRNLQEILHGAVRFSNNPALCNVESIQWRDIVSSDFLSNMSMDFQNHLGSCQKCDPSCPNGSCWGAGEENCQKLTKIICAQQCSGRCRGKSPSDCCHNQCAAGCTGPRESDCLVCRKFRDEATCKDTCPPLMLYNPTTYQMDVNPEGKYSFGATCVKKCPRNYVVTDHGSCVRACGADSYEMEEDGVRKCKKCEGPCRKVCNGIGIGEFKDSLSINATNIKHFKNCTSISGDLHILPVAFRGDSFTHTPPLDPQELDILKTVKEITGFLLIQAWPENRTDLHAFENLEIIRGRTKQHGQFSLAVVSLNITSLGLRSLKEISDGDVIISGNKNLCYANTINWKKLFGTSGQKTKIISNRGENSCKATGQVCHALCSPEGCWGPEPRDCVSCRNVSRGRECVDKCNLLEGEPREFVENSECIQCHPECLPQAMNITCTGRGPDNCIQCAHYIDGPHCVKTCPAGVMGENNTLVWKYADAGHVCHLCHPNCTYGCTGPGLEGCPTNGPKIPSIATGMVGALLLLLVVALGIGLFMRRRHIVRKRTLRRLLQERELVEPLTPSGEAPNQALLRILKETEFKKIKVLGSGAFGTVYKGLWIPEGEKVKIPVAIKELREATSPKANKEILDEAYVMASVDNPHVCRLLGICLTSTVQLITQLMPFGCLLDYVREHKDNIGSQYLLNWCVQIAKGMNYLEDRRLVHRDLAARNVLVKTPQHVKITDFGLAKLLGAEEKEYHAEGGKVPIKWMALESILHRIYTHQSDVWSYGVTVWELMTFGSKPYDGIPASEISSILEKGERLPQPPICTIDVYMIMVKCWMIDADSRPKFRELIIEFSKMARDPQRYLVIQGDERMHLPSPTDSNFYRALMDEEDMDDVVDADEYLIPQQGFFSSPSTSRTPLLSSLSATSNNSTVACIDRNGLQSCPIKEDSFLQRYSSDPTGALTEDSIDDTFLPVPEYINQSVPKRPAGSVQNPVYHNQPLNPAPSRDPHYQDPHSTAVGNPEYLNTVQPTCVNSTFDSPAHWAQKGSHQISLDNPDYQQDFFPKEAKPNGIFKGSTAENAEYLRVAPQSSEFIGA
Test: EGFR activity: Ba/F3 cell viability (CellTiter-Glo, 72 h), EGFR WT
Settings: read-out: BaF3 WT IC50
pIC50: −log10 of the molar value.

COc1c(F)cccc1Nc1c(-c2ccncc2C#C[C@@]2(C)CCCN2C(=O)/C=C/CN2CC(F)(F)C2)[nH]c2c1C(=O)NCC2 ... < 6.00
C=CC(=O)NC1(C#Cc2cnccc2-c2[nH]c3c(c2Nc2cccc(F)c2OC)C(=O)NCC3)CC2(COC2)C1 ... < 6.00
COc1cccnc1C#Cc1cnccc1-c1[nH]c2c(c1Nc1cccc(F)c1C)C(=O)NCC2 ... 6.00 to 7.00
C=CC(=O)N1CC[C@@H]1COc1cnccc1-c1[nH]c2c(c1Nc1cccc(Cl)c1OC)C(=O)NCC2 [Compound 145a] ... 6.00 to 7.00
C=CC(=O)N1[C@H](C)CC[C@H]1C#Cc1cnccc1-c1[nH]c2c(c1Nc1cccc(Cl)c1OC)C(=O)NCC2 ... > 7.00

Record pIC50 per entry; entries follow.
1. COc1c(F)cccc1Nc1c(-c2ccncc2C#C[C@H]2CCC[C@H]2OC)[nH]c2c1C(=O)NCC2
2. C=CC(=O)N[C@@H](C#Cc1cnccc1-c1[nH]c2c(c1Nc1cccc(Cl)c1OC)C(=O)NCC2)CC
3. C=CC(=O)NC1(C#Cc2cnccc2-c2[nH]c3c(c2Nc2cccc(F)c2OC)C(=O)NCC3)CC(F)(F)C1
4. COc1c(F)cccc1Nc1c(-c2ccncc2C#CC(C)(C)NC(=O)/C=C/CN[C@H]2CCOC2)[nH]c2c1C(=O)NCC2
5. CC#CC(=O)N1CC[C@]1(C)COc1cnccc1-c1[nH]c2c(c1Nc1cccc(Cl)c1OC)C(=O)NCC2
6. COc1c(F)cccc1Nc1c(-c2ccncc2C#C[C@@]2(NC(=O)/C=C/CN(C)C)CCOC2)[nH]c2c1C(=O)NCC2
7. C#CC(=O)N1CC[C@@H]1COc1cnccc1-c1[nH]c2c(c1Nc1cccc(Cl)c1OC)C(=O)NCC2

(A)
1: 6.00 to 7.00; 2: < 6.00; 3: 6.00 to 7.00; 4: < 6.00; 5: 6.00 to 7.00; 6: < 6.00; 7: 6.00 to 7.00

Record pIC50 per entry; entries follow.
1. COc1c(Cl)cccc1Nc1c(-c2ccncc2C#CC2CCCC2)[nH]c2c1C(=O)NCC2
2. C=CC(=O)N1[C@H](C)CC[C@@H]1C#Cc1cnccc1-c1[nH]c2c(c1Nc1cccc(F)c1OC)C(=O)NCC2

(A)
["6.00 to 7.00", "6.00 to 7.00"]
